Every entry's value here was drawn from patent US11931424B2.

For each entry below, report its Synergy Score value.
Tested on: panel of breast cancer cell lines
procedure_text: Compound A with targeted agents and chemotherapies, 72-hour in vitro proliferation assays
Format: cell-based
cond: HCC1937; compound A × partner, 72-hour proliferation
Give a plain numeric answer without units written out.

The value of Synergy Score measured for the molecule CC1(C)CCC(c2ccc(Cl)cc2)=C(CN2CCN(c3ccc(C(=O)NS(=O)(=O)c4ccc(N[C@H](CCN5CCOCC5)CSc5ccccc5)c(S(=O)(=O)C(F)(F)F)c4)cc3)CC2)C1 [ABT-263] turned out to be 43.69

Consider CC(=O)O[C@@]12CO[C@@H]1C[C@H](O)[C@@]1(C)C(=O)[C@H](O)C3=C(C)[C@@H](OC(=O)[C@H](O)[C@@H](NC(=O)OC(C)(C)C)c4ccccc4)C[C@@](O)([C@@H](OC(=O)c4ccccc4)[C@H]21)C3(C)C [Docetaxel] . Its measured Synergy Score is 11.60

For reference, reported Synergy Score for CCOc1cc2ncc(C#N)c(Nc3ccc(OCc4ccccn4)c(Cl)c3)c2cc1NC(=O)/C=C/CN(C)C [Neratinib] stands at 13.10

Given item CC(=O)c1c(C)c2cnc(Nc3ccc(N4CCNCC4)cn3)nc2n(C2CCCC2)c1=O [PD-0332991] , the value recorded as its Synergy Score is 21.45

###

Test system: panel of breast cancer cell lines
procedure_text: Compound A with targeted agents and chemotherapies, 72-hour in vitro proliferation assays
Assay type: cell-based
cond: HCC1143; compound A × partner, 72-hour proliferation
assay_metric: Best CI
The answer should be written as a number, with no unit following it.

Entry CS(=O)(=O)CCNCc1ccc(-c2ccc3ncnc(Nc4ccc(OCc5cccc(F)c5)c(Cl)c4)c3c2)o1 [Lapatinib Ditosylate] — recorded Best CI = 0.54

The measured Best CI associated with CC(C)NC[C@@H](C(=O)N1CCN(c2ncnc3c2[C@H](C)C[C@H]3O)CC1)c1ccc(Cl)cc1 reads 0.56

The recorded Best CI for entry O=C(c1cc(Cc2n[nH]c(=O)c3ccccc23)ccc1F)N1CCN(C(=O)C2CC2)CC1 equals 0.24

###

Tested on: panel of breast cancer cell lines
procedure_text: Compound A with targeted agents and chemotherapies, 72-hour in vitro proliferation assays
Format: cell-based
cond: MCF7 cells; Compound A × partner agent; 72-hour proliferation
assay_metric: HSA volume
Lab note: jot the number down without any unit.

panel of breast cancer cell lines assay, compound N.N.[Cl][Pt][Cl] [Cisplatin] , recorded HSA volume = 4.64

So the reported HSA volume for C[C@]12CC[C@@H]3c4ccc(O)cc4C[C@@H](CCCCCCCCC[S+]([O-])CCCC(F)(F)C(F)(F)F)[C@H]3[C@@H]1CC[C@@H]2O (stereo partly drawn) [Fulvestrant] , on panel of breast cancer cell lines, turned out to be 11.54

Here CCN1CCN(Cc2ccc(Nc3ncc(F)c(-c4cc(F)c5nc(C)n(C(C)C)c5c4)n3)nc2)CC1 [Abemaciclib] was tested on panel of breast cancer cell lines, and its HSA volume came to 4.76

###

System: panel of breast cancer cell lines
procedure_text: Compound A with targeted agents and chemotherapies, 72-hour in vitro proliferation assays
Assay type: cell-based
cond: EVSA-T cell line; compound A × partner; 72-hour proliferation
Where a name gives a salt, the structure may show the parent alone.
Label key: 1.0 means Bliss Volume under 10; 0.0 means Bliss Volume of 10 or more.

Request: Would you kindly verify if Bliss Volume of CC(=O)O[C@@]12CO[C@@H]1C[C@H](O)[C@@]1(C)C(=O)[C@H](O)C3=C(C)[C@@H](OC(=O)[C@H](O)[C@@H](NC(=O)OC(C)(C)C)c4ccccc4)C[C@@](O)([C@@H](OC(=O)c4ccccc4)[C@H]21)C3(C)C is strictly less than 10?
Result: 0.0

Request: Say whether its Bliss Volume is strictly beneath 10. Entry: CO[C@H]1C[C@@H]2CC[C@@H](C)[C@@](O)(O2)C(=O)C(=O)N2CCCC[C@H]2C(=O)O[C@H]([C@H](C)C[C@@H]2CC[C@@H](OCCO)[C@H](OC)C2)CC(=O)[C@H](C)/C=C(\C)[C@@H](O)[C@@H](OC)C(=O)[C@H](C)C[C@H](C)/C=C/C=C/C=C/1C
Result: 0.0

Request: # TODO verify Bliss Volume < 10 strictly for this compound: CCN1CCN(Cc2ccc(Nc3ncc(F)c(-c4cc(F)c5nc(C)n(C(C)C)c5c4)n3)nc2)CC1
Result: 1.0

Request: Bench note: check whether CC1(C)CCC(c2ccc(Cl)cc2)=C(CN2CCN(c3ccc(C(=O)NS(=O)(=O)c4ccc(N[C@H](CCN5CCOCC5)CSc5ccccc5)c(S(=O)(=O)C(F)(F)F)c4)cc3)CC2)C1 shows Bliss Volume below 10
Result: 0.0

Request: Dear colleague, could you confirm whether Bliss Volume of N.N.O=C([O-])C1(C(=O)[O-])CCC1.[Pt+2] falls below 10? Thanks.
Result: 1.0

Request: Bliss Volume strictly < 10 for this compound? CC1(C)CCC(CN2CCN(c3ccc(C(=O)NS(=O)(=O)c4ccc(NCC5CCOCC5)c([N+](=O)[O-])c4)c(Oc4cnc5[nH]ccc5c4)c3)CC2)=C(c2ccc(Cl)cc2)C1
Result: 1.0

Request: Record N.N.[Cl][Pt][Cl] [Cisplatin] : is its Bliss Volume strictly below 10?
Result: 0.0

Request: Could you please tell me whether Bliss Volume recorded for CC(C)NC[C@@H](C(=O)N1CCN(c2ncnc3c2[C@H](C)C[C@H]3O)CC1)c1ccc(Cl)cc1 is less than 10?
Result: 0.0

Request: hey, is Bliss Volume for C[C@]12CC[C@@H]3c4ccc(O)cc4C[C@@H](CCCCCCCCC[S+]([O-])CCCC(F)(F)C(F)(F)F)[C@H]3[C@@H]1CC[C@@H]2O (stereo partly drawn) lower than 10 or not?
Result: 1.0

Request: Is it true that Bliss Volume reported for Nc1ccn([C@@H]2O[C@H](CO)[C@@H](O)C2(F)F)c(=O)n1 [Gemcitabine Hydrochloride] is less than 10?
Result: 1.0

Request: Item CC(=O)c1c(C)c2cnc(Nc3ccc(N4CCNCC4)cn3)nc2n(C2CCCC2)c1=O : Bliss Volume beneath 10, strictly?
Result: 1.0

Request: Bliss Volume strictly < 10 for this compound? CN(C)C(=O)c1cc2cnc(Nc3ccc(N4CCNCC4)cn3)nc2n1C1CCCC1
Result: 1.0
